Cited source: paper PMC7826789

# Tested on: PFTAIRE2
# Construct: gene CDK15
# conditionInfo: Compound Concentration (nM):1000;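 also: KINOMEscan scanMAX binding as percent activity remaining versus control; lower means stronger binding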
recordedEndpoint: Percent Control
In your response, the unit should come after the numeric value.

Recorded results for 3 molecules are shown here.
- molecule: "CN(C)c1cc2c(Nc3ccc4c(cnn4Cc4ccccc4)c3)ncnc2cn1 [GW282974X]"
  testResult: "79%"
- molecule: "NS(=O)(=O)c1ccc(N/N=C2\\C(=O)Nc3ccc(Cl)cc32)cc1 [GW280670X]"
  testResult: "100%"
- molecule: "COc1cc(C=NNc2ncnc3c2cnn3-c2ccccc2)ccc1O [GW513184X]"
  testResult: "100%"

**Query** Recorded Percent Control of COc1cc(/C=N/Nc2ncnc3[nH]ncc23)ccc1O [GW578748X] , please.
**Result** 96%

**Query** Next molecule up: COc1cc2ncnc(Nc3ccc4c(cnn4Cc4ccccc4)c3)c2cc1OC.Cl [GW282449A]
**Result** 100%

**Query** Next molecule up: COc1ccc2c(-c3ccnc(Nc4cccc(OC(F)(F)F)c4)n3)cnn2n1 [GW810372X]
**Result** 100%

**Query** Next molecule up: NS(=O)(=O)c1ccc(Nc2ncc(-c3ccccc3)o2)cc1 [GW572399X]
**Result** 98%

**Query** Next molecule up: O=C1Nc2ccc(C(=O)c3ccco3)cc2C1=Cc1cc(Cl)c(O)c(Cl)c1 [GW406108X]
**Result** 100%

**Query** Next molecule up: Cc1cc(O)cc(C)c1/C=C/c1cncc(C(N)=O)c1 [GW435821X]
**Result** 100%

**Query** Next molecule up: COC(=O)Nc1nc2ccc(Oc3ccc(NC(=O)Nc4cc(C(F)(F)F)ccc4F)cc3)cc2s1.Cl [GW693917A]
**Result** 27%

**Query** Next molecule up: Cl.O=S1CCN(Cc2ccc(-c3ccc4ncnc(Nc5ccc(OCc6ccccc6)c(F)c5)c4c3)o2)CC1 [GW576924A]
**Result** 100%

**Query** Next molecule up: CN(C)CCNC(=O)Nc1ccc(N(C)c2ccnc(Nc3ccc(CS(C)(=O)=O)cc3)n2)cc1.Cl [GW830900A]
**Result** 90%

**Query** Next molecule up: CCS(=O)(=O)c1ccc(OC)c(Nc2ncc(-c3cccc(OC)c3)o2)c1 [GW580509X]
**Result** 100%

**Query** Next molecule up: Nc1ncnc2occ(-c3ccc(NC(=O)Nc4cc(C(F)(F)F)ccc4F)cc3)c12 [GW770249X]
**Result** 46%

**Query** Next molecule up: COc1ccc2[nH]c3c4[nH]c5ccc(OC)cc5c4c4c(c3c2c1)C(=O)NC4=O [GW296115X]
**Result** 91%

---

# Tested on: CAMKK2
# conditionInfo: Compound Concentration (nM):1000
Please assign -1 whenever Percent Control is at or above 90%, and 1 whenever it is below.

# example entries with known answers
- compound: "COc1cccc(-n2ncc3c(N/N=C/c4ccncc4)ncnc32)c1 [GW784752X]"
  labelValue: -1
- compound: "Cc1cc(O)cc(C)c1/C=C/c1cncc(C(N)=O)c1 [GW435821X]"
  labelValue: -1

**Query** Report whether reported Percent Control is lower than 90% (strictly) for NS(=O)(=O)c1ccc(N/N=C2\C(=O)Nc3ccc(C(=O)NCCc4c[nH]cn4)cc32)cc1 [GW300660X]
**Result** -1

**Query** Next compound up: COc1cc(C=NNc2ncnc3c2cnn3-c2ccccc2)ccc1O [GW513184X]
**Result** -1

**Query** Next compound up: COc1ccc(COc2ccc(Cc3cnc(N)nc3N)cc2OC)cc1 [GW632580X]
**Result** -1
